Test Conditions: in n-propanol, 293.15 K
Reported Endpoint: solubility (mole fraction)

Query string: Name the recorded solubility (mole fraction) for CC1=C(C(=O)O)N2C(=O)[C@@H](NC(=O)[C@H](N)C3=CCC=CC3)[C@H]2SC1 .
Result string: 0.000253

###

Test Conditions: in n-butanol, 288.15 K
Reported Endpoint: solubility (mole fraction)
Give bare numbers.

Query string: Name the recorded solubility (mole fraction) for CC1=C(C(=O)O)N2C(=O)[C@@H](NC(=O)[C@H](N)C3=CCC=CC3)[C@H]2SC1 .
Result string: 0.000335

###

Test Conditions: in ethanol, 293.15 K
Reported Endpoint: solubility (mole fraction)
Answers are plain numbers.

Query string: Name the recorded solubility (mole fraction) for CC1=C(C(=O)O)N2C(=O)[C@@H](NC(=O)[C@H](N)C3=CCC=CC3)[C@H]2SC1 .
Result string: 0.000249
